- experiment.notes: self-splicing fitness, log relative to wild type (ln ratio); higher = more splicing; Tetrahymena group I intron in knt gene, E. coli kanamycin selection, DiMSum; sequences stand for … in CUCUCU…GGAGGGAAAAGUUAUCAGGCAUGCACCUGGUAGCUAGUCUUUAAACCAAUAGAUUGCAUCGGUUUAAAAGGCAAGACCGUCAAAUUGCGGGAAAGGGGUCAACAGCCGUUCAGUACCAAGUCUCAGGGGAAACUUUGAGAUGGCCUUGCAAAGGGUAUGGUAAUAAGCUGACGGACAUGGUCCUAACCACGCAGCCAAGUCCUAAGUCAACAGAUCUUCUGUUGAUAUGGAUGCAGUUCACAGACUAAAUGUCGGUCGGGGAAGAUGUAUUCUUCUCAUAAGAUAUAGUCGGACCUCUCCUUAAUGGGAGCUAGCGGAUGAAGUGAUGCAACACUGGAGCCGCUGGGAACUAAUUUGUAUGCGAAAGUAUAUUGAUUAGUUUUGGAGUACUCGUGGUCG;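 also: selection with 25 µg/mL kanamycin versus none on LB agar overnight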
- assay.setup: 30 °C
Kindly state self-splicing fitness (ln) for each of the entries shown.
One number for each entry.

Reference set, count: 3
[[record]]
sequence_chain = "UUGUAGCAAUAUUACGCACA"
test_result = -0.174

[[record]]
sequence_chain = "CUCGAGCAAUAUUACGAUCU"
test_result = -3.58

[[record]]
sequence_chain = "CUAGAGCAAUAUUACGCGCA"
test_result = -1.95


Please give self-splicing fitness (ln) for each item listed below.
1. UUCCAGCAAUAUUACGCCUG
2. CACAAGCAAUAUUACGGAUG

Result:
-3.5
-2.59

// for each sequence below, give its self-splicing fitness (ln)
1. AUCAAGCAAUAUUACGUAAA
2. CAACAGCAAUAUUACGCCCG
3. CACUAGCAAUAUUACGCAUA

Result:
-2.59
-0.408
-2.75

Data origin: the supplement of paper PMC7877785
